Reference for the values: patent US11369593B2

tested on: PC12 cells; test: Etoposide-induced apoptosis in PC12 cells, cell viability; type: cell-based; settings: Rattus norvegicus, PC-12; 1 μM compound; etoposide-induced apoptosis, PC12 cells; read-out: % Viability 1 μM
Give viability at 1 µM for every item shown.

Prompt: Sample Nc1nc(NCc2ccc(F)cc2)ccc1NC(=O)OCC(Cl)(Cl)Cl — what was its viability at 1 µM?
Response: 94.9%

Prompt: Sample CCOC(=O)Nc1ccc(NCc2ccc(C(F)(F)F)cc2)nc1N — what was its viability at 1 µM?
Response: 82.7%

Prompt: Sample CCOC(=O)Nc1ccc(NCc2ccc(SC(F)(F)F)cc2)nc1N — what was its viability at 1 µM?
Response: 82.3%
